# Assay overview: FAERS disproportionality analysis
# Reported conditions: FAERS Nov 1997 to March 31, 2015; torsades de pointes; EB05 > 2 = signal

Molecule	EB05 TdP
O=C(CCCN1CC=C(n2c(=O)[nH]c3ccccc32)CC1)c1ccc(F)cc1 [DROPERIDOL]	19.454
CC(C)COCC(CN(Cc1ccccc1)c1ccccc1)N1CCCC1 (stereo not drawn) [BEPRIDIL]	81.663
COc1ccc([C@@H]2Sc3ccccc3N(CCN(C)C)C(=O)[C@@H]2OC(C)=O)cc1 [DILTIAZEM]	2.62
CN(C)CCCN1c2ccccc2Sc2ccc(Cl)cc21 [CHLORPROMAZINE]	5.483
COc1cc2c(Nc3ccc(Br)cc3F)ncnc2cc1OCC1CCN(C)CC1 [VANDETANIB]	0.546
CC/C(=C(\c1ccccc1)c1ccc(OCCN(C)C)cc1)c1ccccc1 [TAMOXIFEN]	0.077
CN(CCOc1ccc(NS(C)(=O)=O)cc1)CCc1ccc(NS(C)(=O)=O)cc1 [DOFETILIDE]	20.983
C=C[C@H]1C[N@@]2CC[C@H]1C[C@@H]2[C@@H](O)c1ccnc2ccc(OC)cc12 [QUINIDINE]	35.667
Cc1nccn1CC1CCc2c(c3ccccc3n2C)C1=O (stereo not drawn) [ONDANSETRON]	15.333
